Molecular target: Recombinant human cathepsin A (Homo sapiens, UniProt P10619)
Construct: Recombinant human cathepsin A (residues 29-480, with a C-terminal 10-His tag); 10-His (C); purchased R&D Systems 1049-SE
Sequence (P10619 29-312 limits assumed): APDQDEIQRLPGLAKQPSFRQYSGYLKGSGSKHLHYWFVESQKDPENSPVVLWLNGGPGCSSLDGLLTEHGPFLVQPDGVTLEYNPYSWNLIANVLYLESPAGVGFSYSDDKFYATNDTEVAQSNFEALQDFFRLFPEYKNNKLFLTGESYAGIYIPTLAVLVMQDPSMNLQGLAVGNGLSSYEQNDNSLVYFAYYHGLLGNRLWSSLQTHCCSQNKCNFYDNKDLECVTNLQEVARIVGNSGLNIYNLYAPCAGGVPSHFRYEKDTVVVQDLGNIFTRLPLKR
Sequence (P10619 327-480 limits assumed): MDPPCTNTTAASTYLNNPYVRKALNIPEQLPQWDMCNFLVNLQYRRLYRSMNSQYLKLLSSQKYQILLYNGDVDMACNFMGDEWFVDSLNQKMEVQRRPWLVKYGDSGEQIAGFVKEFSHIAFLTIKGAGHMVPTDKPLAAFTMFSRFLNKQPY
Test: Cathepsin A inhibitory activity
Format: biochemical
Details: recombinant human cathepsin A 833 ng/ml, Bodipy FL-labeled bradykinin 2 μM, pH 5.5; read-out: CATH-A IC50
Source text: a) Cathepsin A Inhibitory Activity Recombinant human cathepsin A (residues 29-480, with a C-terminal 10-His tag; R&D Systems, #1049-SE) was proteolytically activated with recombinant human cathepsin L (R&D Systems, #952-CY). […] Uncleaved substrate and product were then separated by a microfluidic capillary electrophoresis on a LabChip® 3000 Drug Discovery System (12-Sipper-Chip; Caliper Life Sciences) and quantified by determination of the respective peak areas. […]
pIC50: −log10 of the molar value.
Quick rule for you: pIC50 at 6 or higher means rule met, lower means rule not met.

Could you verify whether the entry COc1ccc(F)cc1C(CC(=O)O)NC(=O)c1cc(O)n(-c2ccccc2Cl)n1 (stereo not shown) [Example 504] shows pIC50 of no less than 6?
rule met

Could you verify whether the entry O=C(O)CC(NC(=O)c1cc(O)n(-c2ccc(F)cc2F)n1)c1cccc(C(F)(F)F)c1F (stereo not shown) [Example 385] shows pIC50 of no less than 6?
rule met

Could you verify whether the entry COc1cc(C(=O)N[C@@H](CC(=O)O)c2ccccc2C)nn1-c1ccccc1F [Example 129] shows pIC50 of no less than 6?
rule met

Could you verify whether the entry Cc1ccc(C(CC(=O)O)NC(=O)c2cc(O)n(-c3ccccc3Cl)n2)c(F)c1 (stereo not shown) [Example 561] shows pIC50 of no less than 6?
rule met

Could you verify whether the entry CN(C)c1ccc(C(CC(=O)O)NC(=O)c2cc(O)n(-c3cccc(Cl)c3)n2)c(Cl)c1 (stereo not shown) [Example 463] shows pIC50 of no less than 6?
rule not met

Could you verify whether the entry O=C(O)CC(NC(=O)c1cc(O)n(-c2cccc(Cl)c2)n1)c1ccc(-c2ccccn2)cc1 (stereo not shown) [Example 513] shows pIC50 of no less than 6?
rule met

Could you verify whether the entry O=C(O)CC(NC(=O)c1cc(O)n(-c2ccccc2Cl)n1)c1ccc(N2CCCC2)cc1 (stereo not shown) [Example 568] shows pIC50 of no less than 6?
rule not met

Could you verify whether the entry O=C(O)CC(NC(=O)c1cc(O)n(-c2ccccc2)n1)c1ccc(-c2ccccn2)cc1 (stereo not shown) [Example 499] shows pIC50 of no less than 6?
rule met

Could you verify whether the entry Cc1ccc(F)cc1C(CC(=O)O)NC(=O)c1cc(O)n(-c2ccccc2)n1 (stereo not shown) [Example 497] shows pIC50 of no less than 6?
rule met

Could you verify whether the entry COc1ccc(F)cc1C(CC(=O)O)NC(=O)c1cc(O)n(-c2ccc(F)cc2F)n1 (stereo not shown) [Example 453] shows pIC50 of no less than 6?
rule met

Could you verify whether the entry O=C(O)CC(NC(=O)c1cc(O)n(-c2ccc(F)cc2F)n1)c1cc(F)ccc1C(F)(F)F (stereo not shown) [Example 452] shows pIC50 of no less than 6?
rule met

Could you verify whether the entry COc1ccc(-c2ccccc2)cc1C(CC(=O)O)NC(=O)c1cc(O)n(-c2ccccc2Cl)n1 (stereo not shown) [Example 562] shows pIC50 of no less than 6?
rule not met
